- ASSAY_DETAILS: Diuretic activity (oral, urine collected for 6 hours)
- Assay type: in vivo, rat (Wistar male rats)
- STUDY_CONDITIONS: Rattus norvegicus, 25 mg/kg oral, rats, relative value for control, read-out: Excretion of K+
Give response vs control in vivo at 25 mg/kg for every item shown.
Give bare numbers, in %.

For orientation, consider the following solved cases.
Q: # lookup: response vs control in vivo at 25 mg/kg of CCCN1C(=O)N2C(=NCC2c2ccccc2)c2c1ncn2C (stereo not shown) [Compound 5]
A: 77

Q: Fill in: response vs control in vivo at 25 mg/kg of CCCN1C(=O)N2C(=NCC2CC)c2[nH]c(C3CCCC3)nc21 (stereo not shown) [18 Sa] is ___
A: 37

Q: Item CCCN1C(=O)N2CC(c3ccccc3)N=C2c2[nH]c(C3CCCC3)nc21 (stereo not shown) [15 Sa] has what recorded response vs control in vivo at 25 mg/kg?
A: 26

Q: Item CCCN1C(=O)N2CC(C)(C)N=C2c2[nH]c(C3CCCC3)nc21 [14 Sa] has what recorded response vs control in vivo at 25 mg/kg?
A: 31

Q: Which response vs control in vivo at 25 mg/kg reading was recorded for the compound CCCN1C(=O)N2C(=NCC2C)c2[nH]c(C3CCCC3)nc21 (stereo not shown) [19 Sa] ?
A: 31

Give me response vs control in vivo at 25 mg/kg for each of these compounds, listed below.
1. CCCN1C(=O)N2CCN=C2c2c1nc(C1CCCC1)n2C [Compound 7]
2. O=C1N2CCN=C2c2[nH]cnc2N1Cc1ccccc1 [9 Sa]

A:
1. 56
2. 31

====

- ASSAY_DETAILS: Diuretic activity (oral, urine collected for 6 hours)
- Type: in vivo, rat (Wistar male rats)
- STUDY_CONDITIONS: Rattus norvegicus, 25 mg/kg oral, rats, relative value for control, read-out: Urine volume
OBSERVED_PROPERTY: response vs control in vivo at 25 mg/kg

Hey, quick one: what's response vs control in vivo at 25 mg/kg for each of these?
1. CCCN1C(=O)N2CC(C)(C)N=C2c2[nH]c(C3CCCC3)nc21
2. CCCN1C(=O)N2C(=NCC2c2ccccc2)c2c1ncn2C (centres unmarked)
3. NS(=O)(=O)c1cc(C(=O)O)c(NCc2ccco2)cc1Cl [Furosemide, reference compound]
4. CCCN1C(=O)N2C(=NCC2CC)c2[nH]c(C3CCCC3)nc21 (centres unmarked)

A:
1. 145%
2. 165%
3. 75%
4. 92%

Each compound below has a recorded value; state its response vs control in vivo at 25 mg/kg.
1. CCCN1C(=O)N2C(=NCC2C)c2[nH]c(C3CCCC3)nc21 (centres unmarked)
2. CCCN1C(=O)N2CC(c3ccccc3)N=C2c2[nH]c(C3CCCC3)nc21 (centres unmarked)
3. O=C1N2CCN=C2c2[nH]cnc2N1Cc1ccccc1
4. CCCN1C(=O)N2CCN=C2c2c1nc(C1CCCC1)n2C

A:
1. 111%
2. 95%
3. 88%
4. 128%

Value source: patent US5270316A
